study_system: T1, human CCR3 (human, UniProt P51677 1-355)
T1 construct: whole, on cells; also called chemokine receptor-3; hCCR3
T1 sequence (looked up): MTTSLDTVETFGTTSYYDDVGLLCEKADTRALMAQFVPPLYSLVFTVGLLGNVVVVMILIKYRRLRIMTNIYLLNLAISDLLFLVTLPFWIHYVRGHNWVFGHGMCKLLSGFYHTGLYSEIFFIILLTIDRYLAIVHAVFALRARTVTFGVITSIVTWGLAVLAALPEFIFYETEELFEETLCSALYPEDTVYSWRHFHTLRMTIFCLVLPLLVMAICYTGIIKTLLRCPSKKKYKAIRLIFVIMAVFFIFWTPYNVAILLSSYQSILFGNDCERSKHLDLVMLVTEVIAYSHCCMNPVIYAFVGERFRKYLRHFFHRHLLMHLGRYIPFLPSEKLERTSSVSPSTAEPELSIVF
experiment_summary: displacement of 0.1 nM 125I-eotaxin from 2x10^5 purified human eosinophils (CCR3), 60 min at room temperature
quantity_name: IC50

Looking up Met-Ckβ7* (ligand, E. coli-produced modified form of Ckβ7/MIP4: signal peptide removed, N-terminal Ala of the mature protein replaced by Met, C-terminus LKLMPEA; also called Met-22-87-Met-Pro-Glu-Ala; hg00701-e2) MQVGTNKELCCLVYTSWQIPQKFIVDYSETSPQCPKPGVILLTKRGRQICADPNKKWVQKYISDLKLMPEA , I found its IC50 recorded as ~6 nM
